- STUDY_SYSTEM: recombinant human MASP2 (amino acids 297-686, C-terminal His Tag) (human, UniProt O00187 297-686)
- Sequence (O00187 other isoform, or with tags, fused parts or gaps limits assumed): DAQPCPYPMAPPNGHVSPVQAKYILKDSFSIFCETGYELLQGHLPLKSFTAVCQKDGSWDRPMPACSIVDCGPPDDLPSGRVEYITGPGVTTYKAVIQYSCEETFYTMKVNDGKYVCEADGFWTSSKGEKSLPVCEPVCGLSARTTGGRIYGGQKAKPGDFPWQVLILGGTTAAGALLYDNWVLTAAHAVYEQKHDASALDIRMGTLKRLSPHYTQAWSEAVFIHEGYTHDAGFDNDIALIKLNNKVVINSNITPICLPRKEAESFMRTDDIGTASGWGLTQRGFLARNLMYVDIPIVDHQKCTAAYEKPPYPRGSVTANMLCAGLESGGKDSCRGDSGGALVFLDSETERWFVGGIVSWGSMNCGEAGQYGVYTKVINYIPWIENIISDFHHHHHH
- ASSAY_DETAILS: cell-based or functional assay
Bridges are numbered along the chain shown (N, C = ends). Where no end group is shown, it is not given here. [ ]: non-standard residue; d: D form. tBuAla = CC(C)(C)C[C@H](N)C(=O)O; Pen = CC(C)(S)[C@H](N)C(=O)O; Ahx = NCCCCCC(=O)O
VALUE_TYPE: human MASP2 IC50 (nM)

KGICSRSLPPICIPD (lactam 1-C; disulfide 4-12; also: TFA salt) [Example 22: K++GIC+SRSLPPIC+IPD**] : 91

1. cyclo(GSGICSRSLPPICIPDS) (disulfide 5-13; not fully specified; printed as G**SGIC+SRSLPPIC+IPDS**; also: TFA salt) [Example 21: G**SGIC+SRSLPPIC+IPDS**]
2. cyclo([Ahx]ICSRS[tBuAla]PPI[Pen]IP) (disulfide 3-11; also: TFA salt) [Example 51: (Ahx)**-IC+SRS-((tBu)A)-PPI-(Pen)+-IP**]
Ask | Of the pair 1 and 2 , name the member with the lesser recorded human MASP2 IC50. Give the chosen item's label as your response.
Reply | 2
